test system: SK-MEL-2 melanoma; experiment: NCI-60 one-dose screen, 48 h; settings: 10 µM unless noted
About 83,000 compounds went through this panel and 20% of them were active in at least one assay; those are over-represented in the sample as a whole. Calls of active or inactive are those of the source. How the source made its calls: active means growth percent below 10; inactive means the rest.
Your response should consist of one outcome taken from YES (active), NO (inactive)

Call for entry CN(C)CCNc1nc2ccccc2c2c(=O)c3ccccc3sc12 :
YES

Call for entry CC(Cc1cccc(C(F)(F)F)c1)NCCOC(=O)c1ccccc1 (stereo not given) :
NO

Call for entry O=C(NCCNc1nccc(-c2c(-c3cccc(O)c3)nc3sccn23)n1)Nc1cc(C(F)(F)F)cc(C(F)(F)F)c1 :
NO

Call for entry CC(C)NCC(O)COc1ccc(CC(N)=O)cc1 (stereo not given) :
NO

Call for entry O=C1COc2ccccc2C(=O)N1CCCCNc1ccccc1 :
NO

Call for entry CCOC(=O)c1noc2c1CCc1c-2cn(Cc2ccc(OC)cc2)c1-c1cc(OC)c(OC)c(OC)c1 :
NO

Call for entry O=S(=O)(CCN1CCOCC1)Nc1cc(-c2ccc3ncnc(Nc4ccc(F)c(Cl)c4)c3c2)cnc1Cl :
YES

Call for entry CC(C)(C)OC(=O)N1CC(Cn2cc(C(F)(F)F)c3c(Cl)ncnc32)C1 :
YES

Call for entry CN(C)c1ccc2cc(-c3nc4ccccc4s3)c(N)nc2c1 :
NO

Call for entry CC(C)Cn1cnc2c3ccccc3nc(NCn3nc(-c4cc(Cl)cc(Cl)c4Cl)oc3=S)c21 :
NO

Call for entry COc1ccc(-c2coc3c(CO)c(O)ccc3c2=O)cc1 :
NO

Call for entry c1ccc2c(c1)Oc1cccnc1-n1nccc1-2 :
NO

Call for entry COc1cc(Nc2ncccc2C(=O)Nc2nc3ccc(F)cc3s2)cc(OC)c1OC :
NO

Call for entry O=C(Nc1ccc(-n2cc(-c3ccncc3)c(-c3ccc(O)c(Cl)c3)n2)cc1)Nc1cccc(Cl)c1Cl :
NO

Call for entry COc1ccc2c(c1)C(=O)/C(=C/c1ccc(OCC(=O)c3ccc(Cl)cc3)cc1)O2 :
NO

Call for entry CC(=O)CC/C=C(\C)[C@H](O)[C@H](C)C(=O)O[C@H]1C[C@H](C)C=C2C=C[C@@]3(C)O[C@@H](O)CC(=O)[C@]3(C)[C@H]21 :
YES

Call for entry O=C(Nc1ccc(-n2cc(-c3ccncc3)c(-c3ccc(O)c(Cl)c3)n2)cc1)c1cc(C(F)(F)F)cc(C(F)(F)F)c1 :
NO

Call for entry Nc1ncc(-c2ccc3ncnc(Nc4cncc(Cl)c4)c3c2)cn1 :
NO

Call for entry O=C1OC(N(Cc2ccc(Cl)cc2)c2ccccc2)c2ccccc21 (stereo not given) :
NO

Call for entry CNC(=O)NN :
NO

* * *

system: COLO 205 colon; assay: NCI-60 one-dose screen, 48 h (100 = growth as untreated, 0 = no growth, -100 = all killed); conditions: 10 µM unless noted
The panel holds about 83,000 compounds, 20% with a hit somewhere; the sample as a whole holds those more often. Active and inactive are the calls of the source. Rule for the calls: active = growth percent below 10; inactive = the rest.
Metric: growth

Looking for the measured growth of C=C1C(=O)O[C@H]2[C@H]1CC/C(COC(=O)c1cc(OC)c(OC)c(OC)c1)=C\CC[C@@]1(C)O[C@@H]21 , can you help?
-73.4% (active)

Looking for the measured growth of O=C1c2ccccc2OC=C(c2ccccc2)N1CCCCNc1ccc(F)cc1 , can you help?
67.6% (inactive)

Looking for the measured growth of CN1CCN(CC(O)COc2c(Br)c(Br)c(Br)c3c2OC(C)(C)C3)CC1 (centres undefined) , can you help?
-45.3% (active)

Looking for the measured growth of O=C(NNC(=O)c1ccc([N+](=O)[O-])cc1)c1ccc([N+](=O)[O-])cc1 , can you help?
115% (inactive)

Looking for the measured growth of O=[N+]([O-])c1cccc(C(c2ccccc2)c2ccccc2)c1 , can you help?
95.2% (inactive)

Looking for the measured growth of Cc1cc(C)c(O)c(C(=O)CC(Br)C(=O)O)c1 (centres undefined) , can you help?
116% (inactive)

Looking for the measured growth of COc1ccc(C(=O)Cn2cnc3c(Nc4cc(C(=O)Nc5ccc(N6CCN(CCO)CC6)cc5)ccc4C)ncnc32)cc1 , can you help?
104% (inactive)

Looking for the measured growth of COc1cccc(-c2nc3sccn3c2-c2ccnc(NCCNC(=O)c3ccccc3)n2)c1 , can you help?
51.8% (inactive)

Looking for the measured growth of COc1ccc(C(=O)NC(=O)Nc2ccc3c(c2)NC(=O)/C3=C\c2[nH]c(C)c(C(=O)O)c2C)cc1 , can you help?
88.1% (inactive)

* * *

system: SF-268 CNS; test: NCI-60 one-dose screen, 48 h (100 = growth as untreated, 0 = no growth, -100 = all killed); settings: 10 µM unless noted
About 83,000 compounds went through this panel and 20% of them were active in at least one assay; those are over-represented in the sample as a whole.
Metric: growth (%)
Reply numerically in %, unit not repeated.

# query: growth | item c1ccc(OCC[P+](c2ccccc2)(c2ccccc2)c2ccccc2)cc1 | system: SF-268 CNS
20.9

# query: growth | item OCc1cnccc1NC12CC3CC(CC(C3)C1)C2 | system: SF-268 CNS
98.3

# query: growth | item Nc1ncnc2c1ccn2-c1cccc(NC(=O)c2cccc(C(F)(F)F)c2)c1 | system: SF-268 CNS
67.5

# query: growth | item Fc1ccc(/C=N/n2c(-c3cc(Cl)cc(Cl)c3Cl)nn(CNc3ccc(Cl)nn3)c2=S)cc1 | system: SF-268 CNS
105

# query: growth | item CCOC(=O)C1CN(Cc2ccccc2)C(=O)C1=O (stereo not given) | system: SF-268 CNS
101

# query: growth | item Clc1ccc2c(NCCNc3nc(Cl)nc4ccccc34)ccnc2c1 | system: SF-268 CNS
-58.1

# query: growth | item O=C1C(SCCO)=C(SCCO)C(=O)N1c1ccc(-c2ccccc2)cc1 | system: SF-268 CNS
41.1

# query: growth | item Cc1ccc(NC(=O)CN2CCOCC2)cc1Cl | system: SF-268 CNS
103

# query: growth | item CC1OC(n2c3ccccc3c3c4c(c5c6ccccc6[nH]c5c32)C(=O)N(CCN[C@@H]2CCC[C@H]2N)C4=O)CC(O)C1O (stereo not given in full) | system: SF-268 CNS
30.6

# query: growth | item Cc1cc2nc(-c3c(N)ncc(C#N)c3-c3ccc(Cl)cc3)[nH]c2cc1C | system: SF-268 CNS
73.4

* * *

tested on: HOP-92 NSCLC; test: NCI-60 one-dose screen, 48 h (100 = growth as untreated, 0 = no growth, -100 = all killed); settings: 10 µM unless noted
This is part of a sample that, as a whole, favours compounds with a hit. Of some 83,000 tested, about 20% had one in any assay.
Think of 30% as a floor: if growth stands on it or above, it is met; beneath it, not met.

Exam item: decide whether the reported growth for O=C(O)c1ccc(-c2nn(-c3ccc(C(=O)O)cc3)cc2/C=N/Nc2c(F)c(F)cc(F)c2F)cc1 is at least 30%.
met

Exam item: decide whether the reported growth for Clc1ccc(OCc2nc(-c3ccccc3)n[nH]2)c(Cl)c1 is at least 30%.
met

Exam item: decide whether the reported growth for CCCOC(=O)c1ccc([N+](=O)[O-])o1 is at least 30%.
met

Exam item: decide whether the reported growth for CCNc1cc(S(=O)(=O)O)ccc1C is at least 30%.
met

Exam item: decide whether the reported growth for CCn1c(SCC(=O)c2ccc(Br)cc2)nnc1-c1cc2c([nH]c3ccccc32)c(-c2cccc(O)c2)n1 is at least 30%.
met

Exam item: decide whether the reported growth for Cc1cc(Nc2ccc(Cl)c(Cl)c2)nc(N)n1 is at least 30%.
met

Exam item: decide whether the reported growth for Nc1ncnc2c1c(-c1ccc(Oc3ccccc3)cc1)nn2C[C@@H]1SSC[C@H]1O is at least 30%.
not met

Exam item: decide whether the reported growth for Clc1ccc(CN2COc3c(ccc4cccnc34)C2)cc1Cl is at least 30%.
not met

Exam item: decide whether the reported growth for Oc1ccc(Cl)cc1Sc1cc(Cl)ccc1O is at least 30%.
met

Exam item: decide whether the reported growth for CC(C)(CCN=C(N)Nc1ccccn1)c1ccc(C(F)(F)F)cc1 is at least 30%.
not met

Exam item: decide whether the reported growth for c1ccc2nc(Cn3cc[n+](Cc4ccc5ccccc5n4)c3)ccc2c1 is at least 30%.
met

Exam item: decide whether the reported growth for O=[N+]([O-])c1ccc(NS(=O)(=O)c2cc(Cl)ccc2Cl)c2ccccc12 is at least 30%.
not met

Exam item: decide whether the reported growth for O=C(N/N=C1\SCC(=O)N1c1ccccc1)c1cc(-c2cc3ccccc3o2)nn1-c1ccccc1 is at least 30%.
met

Exam item: decide whether the reported growth for COc1ccc(/C=C/C(=O)c2ccc(Oc3ncnc4ccccc34)cc2)cc1OC is at least 30%.
met

Exam item: decide whether the reported growth for C=C1C(=O)O[C@H]2[C@H]1CC/C(CNC(=O)/C1=C/CC[C@@]3(C)O[C@H]3[C@H]3OC(=O)C(=C)[C@@H]3CC1)=C\CC[C@@]1(C)O[C@@H]21 is at least 30%.
met

Exam item: decide whether the reported growth for Cc1ccc(NC(=O)CN2CCOCC2)cc1Cl is at least 30%.
met

Exam item: decide whether the reported growth for Cc1cccc[n+]1CCC[n+]1ccccc1C is at least 30%.
met

Exam item: decide whether the reported growth for CCCCCCCC(=O)SCC/C=C/[C@@H]1CC(=O)NCc2nc(cs2)C2=N[C@@](C)(CS2)C(=O)N[C@@H](C(C)C)C(=O)N1 is at least 30%.
not met

Exam item: decide whether the reported growth for COc1cc(/C=C\c2cc(/C=C\c3ccc(O)c(OC)c3)n(C(=O)CNc3ccccc3OC)n2)ccc1O is at least 30%.
met
